Hey, just so you know, these numbers are from patent US20210236466A1.

Please provide measured EC50 for the entries that follow.
# ASSAY TARGET: hSTING (Homo sapiens, UniProt Q86WV6, G230A/H232R/R293Q/R71H)
# Sequence (Q86WV6 whole entry R71H/G230A/H232R/R293Q): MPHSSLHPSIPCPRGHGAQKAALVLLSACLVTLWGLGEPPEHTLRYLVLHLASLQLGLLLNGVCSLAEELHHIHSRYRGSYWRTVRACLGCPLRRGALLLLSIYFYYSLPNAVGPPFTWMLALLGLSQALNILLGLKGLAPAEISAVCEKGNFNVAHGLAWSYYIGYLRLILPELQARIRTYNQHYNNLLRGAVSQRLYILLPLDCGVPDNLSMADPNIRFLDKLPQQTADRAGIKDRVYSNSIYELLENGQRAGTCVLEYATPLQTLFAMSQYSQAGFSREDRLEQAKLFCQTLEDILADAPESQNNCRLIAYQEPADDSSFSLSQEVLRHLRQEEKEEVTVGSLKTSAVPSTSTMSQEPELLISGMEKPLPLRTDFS
# EXPERIMENT DESCRIPTION: STING reporter assay: luciferase reporter activity in THP1-Dual KO-IFNAR2 cells stimulated with 2'3'cGAMP
# SETUP CONDITIONS: 15 μM 2'3'cGAMP, 24 h

Would you kindly share the measured EC50 for O=C(Nc1c[nH]nc1-c1ccccc1)NC1CCCC(c2ccccc2)C1 (stereo not drawn) [Compound 51] ?
5 to 100 µM

Would you kindly share the measured EC50 for CCCCc1ccc(NC(=O)N2CCCc3n[nH]cc32)cc1 [Compound 60] ?
5 to 100 µM

Would you kindly share the measured EC50 for O=C(Nc1c[nH]nc1-c1ccccc1)NC1CCCc2ccccc21 (stereo not drawn) [Compound 50] ?
5 to 100 µM

Would you kindly share the measured EC50 for CCCCc1cccc(NC(=O)Nc2c[nH]nc2-c2ccccc2)c1 [Compound 46] ?
5 to 100 µM

Would you kindly share the measured EC50 for CCCCc1ccc(NC(=O)Nc2cn[nH]c2)cc1 [Compound 52] ?
5 to 100 µM

Would you kindly share the measured EC50 for CCCCc1ccc(NC(=O)Nc2c[nH]nc2-c2ccccn2)cc1 [Compound 47] ?
< 5 µM

Would you kindly share the measured EC50 for O=C(Nc1ccc(C2CCCCC2)nc1)Nc1c[nH]nc1-c1ccccc1 [Compound 36] ?
< 5 µM

Would you kindly share the measured EC50 for CCCCc1ccc(NC(=O)Nc2c[nH]nc2-c2nccs2)cc1 [Compound 43] ?
< 5 µM

Would you kindly share the measured EC50 for O=C(Nc1ccc(C(F)(F)F)cc1)Nc1cn[nH]c1 [Compound 57] ?
5 to 100 µM

Would you kindly share the measured EC50 for O=C(Nc1ccc(C(F)(F)F)cn1)Nc1c[nH]nc1-c1ccccc1 [Compound 39] ?
< 5 µM

Would you kindly share the measured EC50 for O=C(Nc1ccc(C2CCCCC2)cn1)Nc1c[nH]nc1-c1ccccc1 [Compound 38] ?
5 to 100 µM

Would you kindly share the measured EC50 for CCCCc1ccc(NC(=O)Nc2c[nH]nc2-c2ccccc2F)cc1 [Compound 45] ?
< 5 µM

Would you kindly share the measured EC50 for CCCCc1ccc(NC(=O)Nc2c[nH]nc2-c2ccsc2)cc1 [Compound 42] ?
< 5 µM

Would you kindly share the measured EC50 for CCCCC1CCC(NC(=O)Nc2c[nH]nc2-c2ccccc2)CC1 (stereo not drawn) [Compound 54] ?
5 to 100 µM

Would you kindly share the measured EC50 for O=C(Nc1ccc(C(F)(F)F)cc1)Nc1c[nH]nc1-c1ccccc1 [Compound 58] ?
5 to 100 µM

Would you kindly share the measured EC50 for CCCCc1ccc(NC(=O)Nc2c[nH]nc2-c2ccccc2)cc1 [Compound 59] ?
< 5 µM

Would you kindly share the measured EC50 for O=C(Nc1cccc(C(F)(F)F)c1)Nc1c[nH]nc1-c1ccccc1 [Compound 56] ?
5 to 100 µM

Would you kindly share the measured EC50 for CCCCc1ccc(NC(=O)Nc2c[nH]nc2C2CCCCC2)cc1 [Compound 44] ?
5 to 100 µM

Would you kindly share the measured EC50 for O=C(Nc1ccc(C(F)(F)F)nc1)Nc1c[nH]nc1-c1ccccc1 [Compound 37] ?
5 to 100 µM

Would you kindly share the measured EC50 for CC(C)(C)C1CCC(NC(=O)Nc2c[nH]nc2-c2ccccc2)CC1 (stereo not drawn) [Compound 48] ?
5 to 100 µM

Would you kindly share the measured EC50 for O=C(Nc1c[nH]nc1-c1ccccc1)NC1CCC(c2ccccc2)CC1 (stereo not drawn) [Compound 55] ?
5 to 100 µM

Would you kindly share the measured EC50 for O=C(Nc1c[nH]nc1-c1ccccc1)NC1CCC2(CCC2)CC1 [Compound 40] ?
5 to 100 µM

Would you kindly share the measured EC50 for CCCCc1ccc(NC(=O)Nc2c[nH]nc2C)cc1 [Compound 41] ?
5 to 100 µM

Would you kindly share the measured EC50 for O=C(Nc1c[nH]nc1-c1ccccc1)NC1CCc2ccccc2C1 (stereo not drawn) [Compound 49] ?
5 to 100 µM
